target: recombinant human UGT2B4 (Homo sapiens); construct: purchased BD Gentest; test: Kinetics of NAF enantiomer glucuronidation by recombinant UGT2B4; assay type: in vitro ADME
Sequence (P06133 24-528): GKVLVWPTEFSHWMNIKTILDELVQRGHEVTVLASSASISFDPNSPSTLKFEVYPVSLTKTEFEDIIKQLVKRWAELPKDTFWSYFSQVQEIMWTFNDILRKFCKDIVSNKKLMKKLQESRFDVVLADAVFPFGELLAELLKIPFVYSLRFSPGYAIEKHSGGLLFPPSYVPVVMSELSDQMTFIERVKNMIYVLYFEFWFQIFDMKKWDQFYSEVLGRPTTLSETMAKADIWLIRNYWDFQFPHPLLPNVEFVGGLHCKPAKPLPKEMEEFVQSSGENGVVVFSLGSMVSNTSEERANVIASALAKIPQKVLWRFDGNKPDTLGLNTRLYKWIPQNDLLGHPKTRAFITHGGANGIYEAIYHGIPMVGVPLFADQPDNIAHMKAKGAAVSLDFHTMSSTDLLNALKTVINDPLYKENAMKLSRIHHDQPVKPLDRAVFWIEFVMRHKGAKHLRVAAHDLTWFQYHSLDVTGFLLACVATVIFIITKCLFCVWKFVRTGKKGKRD
property measured: Kinetics type

COc1ccccc1N1CCN(CC(COc2cccc3ccccc23)OC2OC(C(=O)O)C(O)C(O)C2O)CC1 (stereo not drawn) [S(-)-NAF-G] ... Substrate inhibition
COc1ccccc1N1CCN(CC(COc2cccc3ccccc23)OC2OC(C(=O)O)C(O)C(O)C2O)CC1 (stereo not drawn) [R(+)-NAF-G] ... Substrate inhibition

* * *

assay: Kinetics of NAF enantiomer glucuronidation by human liver microsomes; assay type: in vitro ADME; settings: human, human liver microsomes, pH 7.5; NAF glucuronidation by HLM; 2.5–80 μM substrate, 45 min
Overview of recorded Km at 45 min for various compounds
Could you give me the number in µM? Just the number is fine.

COc1ccccc1N1CCN(C[C@@H](O)COc2cccc3ccccc23)CC1 [R(+)-NAF] ... 48

Next, consider the following compound.
Look up Km at 45 min for this compound: COc1ccccc1N1CCN(C[C@H](O)COc2cccc3ccccc23)CC1 [S(-)-NAF]
19
